Listing: relative cell viability of selected molecules
- Test system: HL-1
- test description: relative cell viability (CellTiter-Glo) vs DMSO control (% of DMSO control); higher = more viable cells
- condition notes: oxygen condition: hypoxia 48 h (1% O2) + reoxygenation 24 h; 5000 nM
Where a name gives a salt, the structure may show the parent alone.
I only need the number, thanks.

molecule: COc1cc2nc(N3CCN(C(=O)c4ccco4)CC3)nc(N)c2cc1OC [Prazosin HCl]
observed property: relative cell viability
observed value: 109

molecule: Nc1cc(C(Cl)=C(Cl)Cl)c(S(N)(=O)=O)cc1S(N)(=O)=O
observed property: relative cell viability
observed value: 113

molecule: COc1ccc2cc1Oc1ccc(cc1)C[C@H]1c3c(cc4c(c3Oc3cc5c(cc3OC)CCN(C)[C@@H]5C2)OCO4)CCN1C
observed property: relative cell viability
observed value: 49.8

Ask: # input molecule: NCCC(O)(P(=O)(O)O)P(=O)(O)O [Pamidronate Disodium] ; wanted: its relative cell viability
Result: 76.5

###

- Test system: HL-1
- test description: relative cell viability (CellTiter-Glo) vs DMSO control (% of DMSO control); higher = more viable cells
- condition notes: oxygen condition: normoxia 72 h; 1000 nM
Where a name gives a salt, the structure may show the parent alone.
Listing: relative cell viability of selected molecules

Observe how each entry below is paired with its result.
molecule: CCOc1ccc2ccccc2c1C(=O)N[C@@H]1C(=O)N2[C@@H]1SC(C)(C)[C@@H]2C(=O)O [nafcillin sodium monohydrate]
relative cell viability: 103
//
molecule: Cc1ccc(Nc2nccc(N(C)c3ccc4c(C)n(C)nc4c3)n2)cc1S(N)(=O)=O [Pazopanib HCl]
relative cell viability: 104
//
molecule: CN1CCN(C2=Nc3ccccc3Oc3ccc(Cl)cc32)CC1 [Loxapine Succinate]
relative cell viability: 102
//
molecule: Cn1c([N+](=O)[O-])cnc1COC(N)=O [Ronidazole]
relative cell viability: 121
//
molecule: CN1CC2c3ccccc3Oc3ccc(Cl)cc3C2C1 (stereo not drawn) [Asenapine]
relative cell viability: 103

Ask: # input molecule: C[C@]12CC[C@@H]3c4ccc(O)cc4CC[C@H]3[C@@H]1CC[C@@H]2O [Estradiol] ; wanted: its relative cell viability
Result: 100

Ask: Entry CN(C)CCc1c[nH]c2ccc(CS(=O)(=O)N3CCCC3)cc12 [Almotriptan malate] please
Result: 102

Ask: Entry C[C@]12CC[C@H](O)CC1=CC[C@@H]1[C@@H]2CC[C@]2(C)C(c3cccnc3)=CC[C@@H]12 [Abiraterone] please
Result: 78.7

Ask: Entry COc1ccccc1N1CCN(CC(O)COc2cccc3ccccc23)CC1 (stereo not drawn) [Naftopidil] please
Result: 102

Ask: Entry Cc1ncc([N+](=O)[O-])n1CC(O)CCl (stereo not drawn) [Ornidazole] please
Result: 103

Ask: Entry CCCNCC(O)COc1ccccc1C(=O)CCc1ccccc1 (stereo not drawn) [Propafenone] please
Result: 110

Ask: Entry C=C[C@H]1CN2CC[C@H]1C[C@H]2[C@H](O)c1ccnc2ccc(OC)cc12 [Quinine hydrochloride dihydrate] please
Result: 103

Ask: Entry NCCCC(O)(P(=O)(O)O)P(=O)(O)O [Alendronate] please
Result: 107

Ask: Entry CC(C)C[C@H](NC(=O)[C@H](CCc1ccccc1)NC(=O)CN1CCOCC1)C(=O)N[C@@H](Cc1ccccc1)C(=O)N[C@@H](CC(C)C)C(=O)[C@@]1(C)CO1 [Carfilzomib] please
Result: 3.72

Ask: Entry O=c1cc[nH]c(=S)[nH]1 [2-Thiouracil] please
Result: 100
